tested on: Mycobacterium tuberculosis; assay: Antimycobacterial activity against isoniazid and rifampicin-resistant Mycobacterium tuberculosis MTB2556 clinical isolate by MTT assay; assay type: functional
This listing pairs molecules with measured MIC.

Known MIC results, listed for orientation:
molecule	experimental-target	MIC
NNC(=O)c1ccncc1	Mycobacterium tuberculosis	> 0.5 µg/mL
Cc1ccc(-c2c3c(nc4c2c(C)nn4-c2ccccc2)-c2ccccc2C(=O)C3=O)cc1	Mycobacterium tuberculosis	≤ 2 µg/mL
Cc1ccc(-c2n[nH]c3c2C(c2ccccc2)C2=C(N3)c3ccccc3C(=O)C2=O)cc1 (stereo not given)	Mycobacterium tuberculosis	16 µg/mL
Cc1nn(-c2ccccc2)c2nc3c(c(-c4ccccc4)c12)C(=O)C(=O)c1ccccc1-3	Mycobacterium tuberculosis	≤ 2 µg/mL

MIC on Mycobacterium tuberculosis for Cc1ccc(-c2n[nH]c3nc4c(c(-c5ccc([N+](=O)[O-])cc5)c23)C(=O)C(=O)c2ccccc2-4)cc1 is > 32 µg/mL

###

This listing pairs compounds with measured MIC.
system: Mycobacterium tuberculosis; test: Antimycobacterial activity against isoniazid and rifampicin-resistant Mycobacterium tuberculosis MTB2556 clinical isolate by MTT assay; format: functional

Known MIC results, listed for orientation:
compound	experimental-target	observed
COc1cc(-c2c3c(nc4c2c(C)nn4-c2ccccc2)-c2ccccc2C(=O)C3=O)cc(OC)c1OC	Mycobacterium tuberculosis	> 32 µg/mL
O=C1C(=O)c2ccccc2C2=C1C(c1ccccc1)c1c(-c3ccc([N+](=O)[O-])cc3)n[nH]c1N2 (configuration not stated)	Mycobacterium tuberculosis	8 µg/mL
COc1ccc(C2C3=C(Nc4[nH]nc(-c5ccccc5)c42)c2ccccc2C(=O)C3=O)cc1 (configuration not stated)	Mycobacterium tuberculosis	> 32 µg/mL

Shifting focus to the compound that follows.
MIC on Mycobacterium tuberculosis for Cc1ccc(C2C3=C(Nc4[nH]nc(-c5ccccc5)c42)c2ccccc2C(=O)C3=O)cc1 (configuration not stated) is > 32 µg/mL

###

test system: Mycobacterium tuberculosis; test: Antimycobacterial activity against isoniazid and rifampicin-resistant Mycobacterium tuberculosis MTB2556 clinical isolate by MTT assay; assay type: functional
experimental-readout: MIC

molecule	MIC
O=C1C(=O)c2ccccc2C2=C1C(c1ccccc1)c1c(-c3ccc(Cl)cc3)n[nH]c1N2 (stereo not drawn)	> 32 µg/mL
Cc1nn(-c2ccccc2)c2nc3c(c(-c4ccc(F)cc4)c12)C(=O)C(=O)c1ccccc1-3	≤ 2 µg/mL

Shifting focus to the molecule that follows.
Item: CO[C@H]1/C=C/O[C@@]2(C)Oc3c(C)c(O)c4c(O)c(c(/C=N/N5CCN(C)CC5)c(O)c4c3C2=O)NC(=O)/C(C)=C\C=C\[C@H](C)[C@H](O)[C@@H](C)[C@@H](O)[C@@H](C)[C@H](OC(C)=O)[C@@H]1C | MIC: > 0.5 µg/mL
